Just for reference, patent US12338220B2 is where these values come from.

TEST SYSTEM: HSV-polymerase (Human herpesvirus 1 (strain 17) (HHV-1) (Human herpes simplex virus 1), UniProt P04293)
ASSAY: biochemical
TEST READOUT: pIC50
Please keep in mind that pIC50 is minus log10 of the molar concentration; only the number is needed.

{"columns": ["MOLECULE", "pIC50"],
 "data": [
  ["CC1Cc2c(C(=O)NCc3ccc(C#N)cc3)nn(C)c2C(=O)N1CC1(S(C)(=O)=O)CC1 (single isomer, unassigned)", 5.70]
]}

Exercise: Sample Cn1nc(C(=O)NCc2ccc(C#N)cc2)c2c1C(=O)N(CC1(S(=O)(=O)C3(C(O)CO)CC3)CC1)CC2 (single isomer, unassigned) [Example 195] — what was its pIC50?
Solution: 7.64

Exercise: Sample Cc1cc(NS(=O)(=O)C2(CN3CCc4c(C(=O)NCc5ccc(C#N)cc5)nn(C)c4C3=O)CC2)no1 — what was its pIC50?
Solution: 7.85
